Ref: paper PMC10709327

METHOD_SUMMARY: in vitro
STATED_CONDITIONS: mouse, plasma
Where no end group is shown, it is not given here.
MEASUREMENT_KIND: half-life at 10 µM (min)
Give a bare numeral; the unit min is implied.

Entry QFFGLM-NH2 [Substance P (6-11)] needs its half-life at 10 µM filled in; supply it.
8.5
